Readings of GI50 for the listed compounds
# System: 786-0
# Procedure text: NCI tumour cell line growth inhibition, 48 h
Activity calls are given as the source filed them. Rule as the data show it: active = GI50 up to about 1.1 µM and inactive = higher.

Cn1cc2ccccc2c1-c1nc(F)nc(OCC(=O)[C@H]2CCC3[C@@H]4CCC5=CC(=O)CC[C@]5(C)C4[C@@H](O)C[C@@]32C)n1 (stereo partly drawn); 16.5 µM (inactive)
Nc1ccc(-c2nc3cc(F)ccc3s2)cc1I; 16.2 µM (inactive)
NCCCN1CCN(c2ccccc2)CC1; > 100 µM (inactive)
CC1=C(CO)C(=O)OC(C(C)C2CCC3C4CC5OC56C(O)C(N5CC5)=CC(=O)C6(C)C4CCC23C)C1 (stereo not drawn); 5.05 µM (inactive)
CCCCN(CCCC)c1c([N+](=O)[O-])c(=O)nc2ccccn12; 34 µM (inactive)

Query: Supply GI50 value. Item: Cn1cc(NC(=O)Nc2cc(C(=O)Nc3cc(C(=O)Nc4cc(S(=O)(=O)O)c5cc(S(=O)(=O)O)cc(S(=O)(=O)O)c5c4)n(C)c3)n(C)c2)cc1C(=O)Nc1cc(C(=O)Nc2cc(S(=O)(=O)O)c3cc(S(=O)(=O)O)cc(S(=O)(=O)O)c3c2)n(C)c1
Reply: > 100 µM (inactive)

Query: Supply GI50 value. Item: Cc1ccc(C)c(NC(=O)CCc2n[nH]c(=S)o2)c1
Reply: > 100 µM (inactive)

Query: Supply GI50 value. Item: COc1cccc(N2C(=O)c3c(c4[nH]c5ccccc5c4c4ccc(C(C)(C)C)cc34)C2=O)c1
Reply: > 100 µM (inactive)

---

# System: U-251
# Procedure text: NCI tumour cell line growth inhibition, 48 h
The source made the active and inactive calls. No stated cut-off is given here; in the data, active = GI50 up to about 1.1 µM and inactive = higher.
Readings of GI50 for the listed compounds

N#Cc1ccc(C2ON=C(c3ccccc3)N2C23CC4CC(CC(C4)C2)C3)cc1 (centres undefined); > 10 µM (inactive)
CCOC(=O)c1nc2cc(F)cc(F)c2[nH]c1=O; > 100 µM (inactive)
FC(F)(F)c1ccc2nc(Sc3ccc4ccccc4c3)cnc2c1; 25.2 µM (inactive)

Query: Supply GI50 value. Item: COc1ccc(Nc2nc3c(N)cc(C(F)(F)F)cc3nc2-c2ccccc2)cc1OC
Reply: 11.3 µM (inactive)

Query: Supply GI50 value. Item: CCN1C(=O)/C(=C/Nc2ccccc2)S/C1=N/Nc1nc(-c2ccc(O)c(O)c2)cs1
Reply: 6.56 µM (inactive)

Query: Supply GI50 value. Item: CCCCCCCCCCCCN(CC(O)C(O)C(OC1OC(CO)C(O)C(O)C1O)C(O)CO)C(=O)CCCCCCCCCCC (centres undefined)
Reply: 18.6 µM (inactive)

Query: Supply GI50 value. Item: CC(=O)OCc1ccc2oc(=O)c(C(=O)Oc3cccc(Cl)c3)cc2c1
Reply: > 100 µM (inactive)

Query: Supply GI50 value. Item: CC(C)CCC[C@@H](C)C1CCC2[C@@H]3CCC4CC(CCC=C(c5cc(Cl)c(OC(=O)c6ccccc6)c(C(=O)O)c5)c5cc(Cl)c(OC(=O)c6ccccc6)c(C(=O)O)c5)CC[C@]4(C)C3CC[C@@]21C (some centres undefined)
Reply: > 100 µM (inactive)

Query: Supply GI50 value. Item: Cc1cn(Cc2ccccc2CCl)c(=O)[nH]c1=O
Reply: 7.94 µM (inactive)

Query: Supply GI50 value. Item: CC[N+](C)(CC)CC(C)(C)C(=O)/C=C/c1ccc(/C=C/C(=O)C(C)(C)C[N+](C)(CC)CC)cc1
Reply: > 100 µM (inactive)

Query: Supply GI50 value. Item: O=C1OC(OC/C(Br)=C(\Br)COC2OC(=O)C(Cl)=C2Cl)C(Cl)=C1Cl (centres undefined)
Reply: 4.58 µM (inactive)

Query: Supply GI50 value. Item: CCN(CC)C(=S)SCC(=O)Nc1nc2c(s1)CCCC2
Reply: 70.1 µM (inactive)

Query: Supply GI50 value. Item: OC(C/C=N/Nc1ccccc1)(C(F)(F)Cl)C(F)(F)Cl
Reply: > 10 µM (inactive)

Query: Supply GI50 value. Item: CCOC(=O)/C(C(=O)Nc1ccc(F)cc1)=C(/N)N1CCOCC1
Reply: > 100 µM (inactive)

Query: Supply GI50 value. Item: CC(=O)OCC1OC(N2C(C)=C(C(C)=O)C(c3ccco3)C(C#N)=C2S)C(OC(C)=O)C(OC(C)=O)C1OC(C)=O (centres undefined)
Reply: > 100 µM (inactive)

Query: Supply GI50 value. Item: CNC(=S)NC(=S)N(C)C
Reply: > 100 µM (inactive)
